- Measured target: Free fatty acid receptor 1 (Homo sapiens)
- Sequence (O14842 whole entry): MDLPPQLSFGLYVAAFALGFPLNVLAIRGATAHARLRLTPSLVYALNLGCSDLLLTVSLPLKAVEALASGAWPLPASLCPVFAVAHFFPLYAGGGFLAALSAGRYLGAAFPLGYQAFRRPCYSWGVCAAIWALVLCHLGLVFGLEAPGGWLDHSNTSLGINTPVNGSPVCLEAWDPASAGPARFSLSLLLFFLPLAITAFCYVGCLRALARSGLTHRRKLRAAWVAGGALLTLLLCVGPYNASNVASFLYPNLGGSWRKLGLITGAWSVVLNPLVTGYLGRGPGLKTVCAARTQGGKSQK
- Assay summary: Positive allosteric modulation of human GPR40 expressed in HEK293 cells assessed as IP1 accumulation measured after 60 mins by HTRF assay relative to DMSO control
- Assay type: functional, cell-based
- Set-up: concentration or dose not given beside the values
Would you kindly list Activity for each of these compounds?
Numbers only, in %.

The following compounds have reported results that may help.
COc1ccc(F)c(-c2ccc(C3CCc4ccc([C@H](C5CC5)[C@@H](C)C(=O)O)cc4O3)cc2)c1 (stereo in doubt; 26) : 464
COc1ccc(F)c(-c2ccc(C3CCc4ccc([C@@H](CC(=O)O)C5CC5)cc4O3)cc2C(OC)C2CC2)c1 (single isomer, unassigned; isomer 4) : 323
COc1ccc(F)c(-c2ccc(C3CCc4ccc([C@@H](CC(=O)O)C5CC5)cc4O3)cc2C(OC)C2CC2)c1 (stereo in doubt; 19) : 365
COc1ccc(F)c(-c2ccc(C3CCc4ccc([C@H](C5CC5)[C@H](C)C(=O)O)cc4O3)nc2)c1 (stereo in doubt; 30) : 408

Respectfully, I request Activity for each entry included below.
1. COc1ccc(F)c(-c2ccc(C3CCc4ccc(CCC(=O)O)cc4O3)cc2C2=CCCC2(C)C)c1 (racemic)
2. COc1ccc(F)c(-c2ccc(C3CCc4ccc([C@H](C5CC5)[C@@H](C)C(=O)O)cc4O3)cc2)c1 (stereo in doubt; 27)

stdout:
[377, 460]
